# System: Rattus norvegicus
# protocol.notes: Compound was tested for its ability (% reversal in rats) to reverse electroconvulsive shock-induced amnesia in rodents at a dose of 100 (mg/kg) administered intramuscularly (im)
# Type: functional
value.type: Reversal (%)
Record the value in %, omitting the unit from your answer.

compound	Reversal (%)
CC(C)CC1CN(C[C@H](CC(C)C)NC(=O)[C@@H]2CCC(=O)N2)CC(=O)N1 (some centres undefined)	0

Query: Quick check: Reversal of CC(C)CC(CNCC(=O)O)NCC1CCCN1C(=O)OCc1ccccc1 (centres undefined) ?
Result: 40

Query: Quick check: Reversal of O=C(NC(Cc1ccccc1)CN1C(=O)C2CCCN2C(=O)C1Cc1c[nH]cn1)c1ccccc1 (centres undefined) ?
Result: 83

* * *

# Tested on: Rattus norvegicus
# protocol.notes: Ability (% reversal in rats) to reverse electroconvulsive shock-induced amnesia in rodents at a dose of 0.10 (mg/kg) (following intramuscular dosing)
# Format: functional
value.type: Reversal (%)
Record the value in %, omitting the unit from your answer.

compound	value.type	reported.measurement
CC(C)C[C@@H](CNCC(N)=O)NC(=O)[C@@H]1CCCN1C(=O)OCc1ccccc1	Reversal	43
CC(C)C[C@@H](CSCC(=O)O)NCC1CCCN1C(=O)OCc1ccccc1 (some centres undefined)	Reversal	60
NCCCC[C@H](NC(=O)[C@@H]1CCCN1C(=O)[C@@H]1CSSC[C@H](N)C(=O)N[C@@H](Cc2ccc(O)cc2)C(=O)N[C@@H](Cc2ccccc2)C(=O)N[C@@H](CCC(N)=O)C(=O)N[C@@H](CC(N)=O)C(=O)N1)C(=O)NCC(N)=O	Reversal	56

Attention now shifts to the item below.
Query: Quick check: Reversal of NC(=O)COCC(Cc1ccccc1)NC(=O)C1CCCN1C(=O)OCc1ccccc1 (centres undefined) ?
Result: 0

* * *

Listed here are compounds together with their documented Reversal.
# Test system: Rattus norvegicus
# protocol.notes: Ability (% reversal in rats) to reverse electroconvulsive shock-induced amnesia in rodents at a dose of 0.10 (mg/kg) (following intramuscular dosing)
# Assay type: functional
Residues, ends and D or L forms follow the SMILES beside them.
Record the value in %, omitting the unit from your answer.

# example entries with known answers
compound	value.type	unit.abbreviation	reported.measurement
CC(C)CC(CNCC(=O)O)NC(=O)C1CCC(=O)N1 (centres undefined)	Reversal	%	33
CC(C)C[C@H](NC(=O)[C@@H]1CCCN1)C(=O)NCC(N)=O (H-Pro-Leu-Gly-NH2)	Reversal	%	43
CC(C)CC(CNCC(=O)O)NCC1CCCN1C(=O)OCc1ccccc1 (centres undefined)	Reversal	%	14
CC(C)CC(NCC1CCCN1C(=O)OCc1ccccc1)C(=O)NCC(N)=O (centres undefined)	Reversal	%	0
CC(C)CC(CSCC(N)=O)NCC1CCCN1C(=O)OCc1ccccc1 (centres undefined)	Reversal	%	25

Query: What measured Reversal is associated with Cc1ccc(S(=O)(=O)N2CCCC2CNC(CNCC(=O)O)CC(C)C)cc1 (centres undefined) on Rattus norvegicus?
Result: 40

Query: What measured Reversal is associated with CC(C)CC(OCC1CCCN1C(=O)OCc1ccccc1)C(=O)NCC(N)=O (centres undefined) on Rattus norvegicus?
Result: 0

Query: What measured Reversal is associated with COc1ccc(C(=O)N2CCCC2C(=O)NC(CSCC(=O)O)CC(C)C)cc1 (centres undefined) on Rattus norvegicus?
Result: 60

* * *

# Test system: Rattus norvegicus
# protocol.notes: Ability (% reversal in rats) to reverse electroconvulsive shock-induced amnesia in rodents at a dose of 0.010 (mg/kg) administered intramuscularly (im)
# Type: functional
value.type: Reversal (%)
Record the value in %, omitting the unit from your answer.

molecule	unit.abbreviation	Reversal
CC(C)CC(CSCC(=O)O)NC(=O)C1CC(=O)CN1C(=O)OCc1ccccc1 (stereo not given)	%	50
Cc1ccc(S(=O)(=O)N2CCCC2CNC(CNCC(=O)O)CC(C)C)cc1 (stereo not given)	%	0
CC(C)CC(/C=C/CC(N)=O)NC(=O)C1CCCN1C(=O)OCc1ccccc1 (stereo not given)	%	77

Query: Quick check: Reversal of CC(C)CC(OCC1CCCN1C(=O)OCc1ccccc1)C(=O)NCC(N)=O (stereo not given) ?
Result: 0

Query: Quick check: Reversal of NC(=O)CNC(=O)[C@H](CCCCNC(=O)OCc1ccccc1)NCC1CCCN1 (stereo not given in full) ?
Result: 16

* * *

# System: Rattus norvegicus
# protocol.notes: Ability (% reversal in rats) to reverse electroconvulsive shock-induced amnesia in rodents at a dose of 0.010 (mg/kg) administered intramuscularly (im)
# Format: functional
Residues, ends and D or L forms follow the SMILES beside them. *: point of attachment. Cbz = O=C(OCc1ccccc1)*; Boc = CC(C)(C)OC(=O)*
Short version: Reversal at least 30% is T, less is F.

Solved entries:
compound	experimental.target	cat
CC(C)(C)OC(=O)NCCCC[C@H](NC(=O)[C@@H]1CCCN1C(=O)OCc1ccccc1)C(=O)NCC(N)=O (Cbz-Pro-Lys(Boc)-Gly-NH2)	Rattus norvegicus	F
O=C(NCCCCC(SCC1CCCN1C(=O)OCc1ccccc1)C(=O)[O-])OCc1ccccc1.[Na+] (centres undefined)	Rattus norvegicus	F
CC(C)C[C@@H](CSCC(=O)O)NCC1CCCN1C(=O)OCc1ccccc1 (some centres undefined)	Rattus norvegicus	T
CC(C)(C)OC(=O)N1CCCC1CN[C@@H](CCCCNC(=O)OCc1ccccc1)C(=O)NCC(N)=O (some centres undefined)	Rattus norvegicus	T
O=C(O)COCC1CCCN1C(=O)OCc1ccccc1 (centres undefined)	Rattus norvegicus	T

Query: Identify whether the reported Reversal of the following compound is 30% or greater: NC(=O)CC[C@@H]1NC(=O)[C@H](Cc2ccccc2)NC(=O)[C@H](Cc2ccc(O)cc2)NC(=O)[C@@H](N)CSSC[C@@H](C(=O)N2CCC[C@H]2C(=O)N[C@@H](CCCN=C(N)N)C(=O)NCC(N)=O)NC(=O)[C@H](CC(N)=O)NC1=O
Result: T

Query: Identify whether the reported Reversal of the following compound is 30% or greater: CC(C)CC(OCC1CCCN1C(=O)OCc1ccccc1)C(=O)NCC(=O)O (centres undefined)
Result: T

Query: Identify whether the reported Reversal of the following compound is 30% or greater: NC(=O)CNC(=O)COCC1CCCN1C(=O)OCc1ccccc1 (centres undefined)
Result: T

Query: Identify whether the reported Reversal of the following compound is 30% or greater: CC(C)CC(CSCC(=O)O)NC(=O)C1CCCN1C(=O)OCc1ccccc1 (centres undefined)
Result: T

Query: Identify whether the reported Reversal of the following compound is 30% or greater: O=C(O)CNC(=O)COCC1CCCN1C(=O)OCc1ccccc1 (centres undefined)
Result: T

Query: Identify whether the reported Reversal of the following compound is 30% or greater: CC(C)CC(CSCC(N)=O)NCC1CCCN1C(=O)OCc1ccccc1 (centres undefined)
Result: F

Query: Identify whether the reported Reversal of the following compound is 30% or greater: Cc1ccc(S(=O)(=O)N2CCCC2CN[C@@H](CC(C)C)C(=O)NCC(N)=O)cc1 (some centres undefined)
Result: F

Query: Identify whether the reported Reversal of the following compound is 30% or greater: O=C(NCCCCC(CO)NC(=O)C1CCCN1C(=O)OCc1ccccc1)OCc1ccccc1 (centres undefined)
Result: T

Query: Identify whether the reported Reversal of the following compound is 30% or greater: CC(C)CC(CSCC(=O)O)NC(=O)C1CCC(=O)N1C(=O)OCc1ccccc1 (centres undefined)
Result: T

* * *

# Test system: Rattus norvegicus
# protocol.notes: Compound was tested for its ability (% reversal in rats) to reverse electroconvulsive shock-induced amnesia in rodents at a dose of 1 (mg/kg) administered intramuscularly (im)
# Assay type: functional
Short version: Reversal at least 50% is rule met, less is rule not met.

compound	cat
CC(C)CC(CSCC(=O)O)NC(=O)C1CCC(=O)N1C(=O)OCc1ccccc1 (centres undefined)	rule not met
Cc1ccc(S(=O)(=O)N2CCCC2CN[C@@H](CC(C)C)C(=O)NCC(N)=O)cc1 (some centres undefined)	rule met
O=C(O)COCC1CCCN1C(=O)OCc1ccccc1 (centres undefined)	rule not met
CC(C)C[C@@H](CNCC(N)=O)NC(=O)[C@@H]1CCCN1C(=O)OCc1ccccc1	rule not met
CC(C)C[C@@H](CSCC(=O)O)NCC1CCCN1C(=O)OCc1ccccc1 (some centres undefined)	rule met

Query: Identify whether the reported Reversal of the following compound is 50% or greater: CC(C)CC(N)CN1CC(=O)NC(CC(C)C)C1 (centres undefined)
Result: rule not met

Query: Identify whether the reported Reversal of the following compound is 50% or greater: CC(C)CC1CN(C[C@H](CC(C)C)NC(=O)[C@@H]2CCC(=O)N2)CC(=O)N1 (some centres undefined)
Result: rule not met

Query: Identify whether the reported Reversal of the following compound is 50% or greater: NC(=O)CNC(=O)[C@H](CCCCNC(=O)OCc1ccccc1)NCC1CCCN1 (some centres undefined)
Result: rule not met

Query: Identify whether the reported Reversal of the following compound is 50% or greater: NC(=O)COCC(Cc1ccccc1)NC(=O)C1CCCN1C(=O)OCc1ccccc1 (centres undefined)
Result: rule not met

Query: Identify whether the reported Reversal of the following compound is 50% or greater: CC(C)CC1CN(C[C@H](CC(C)C)NC(=O)[C@@H]2CCCN2C(=O)OCc2ccccc2)CC(=O)N1 (some centres undefined)
Result: rule not met

Query: Identify whether the reported Reversal of the following compound is 50% or greater: CC(C)CC(CSCC(=O)O)NC(=O)C1CC(=O)CN1C(=O)OCc1ccccc1 (centres undefined)
Result: rule met

Query: Identify whether the reported Reversal of the following compound is 50% or greater: CC(C)CC(NCC1CCCN1C(=O)OCc1ccccc1)C(=O)NCC(N)=O (centres undefined)
Result: rule met

Query: Identify whether the reported Reversal of the following compound is 50% or greater: O=C(NCCCCC(CO)NC(=O)C1CCCN1C(=O)OCc1ccccc1)OCc1ccccc1 (centres undefined)
Result: rule not met
